The reported numbers originate from PubChem BioAssay.

# MEASURED TARGET: Luciferin 4-monooxygenase (Photinus pyralis)
# PROTOCOL NOTES: firefly luciferase enzyme inhibitors, primary screen, biochemical, luminescence, purified enzyme, 2006 set (AID 1141);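 note: cell-free assay with purified firefly luciferase at 100 ng per well in PBS; test concentration not given here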
# APPLIED CONDITIONS: SteadyGlo luminescence, 30 min, higher = more signal, called active from +8 up or from −8 down
PROPERTY LABEL: z-score
Please reply with the value in numeric form only.

O=C1NC(=O)C2C1C=CC(C(O)c1ccc(Br)cc1)N2Nc1ccccn1 (stereo not drawn) | -1.52
COc1ccc([Si](C)(C)[C@H]2[C@H](CCn3cc([C@H](O)c4ccccc4)nn3)O[C@@]3(C(=O)N(Cc4ccc(N5CCC5=O)cc4)c4ccccc43)[C@@H]2C)cc1 | 0.465
Cc1ccc(S[C@]2(C(=O)NC(C)C)CC(=O)N(Cc3ccccc3C(F)(F)F)[C@@H]2c2ccc(CO)cc2I)cc1 | 1.35
CC(C)(C)OC(=O)CC[C@]1(C(=O)N2CCOCC2)N=C(c2ccc(OCCCO)cc2)O[C@H]1c1ccccc1 | -1.99
Cc1ccc(F)cc1S(=O)(=O)N[C@@H]1CCN(Cc2ccc(Oc3ccccc3)cc2)C1 | 0.453

Documented z-score of CC(C)CN1C(=O)[C@@]2(Cc3ccccc31)c1ccccc1C(=O)N(Cc1ccccc1C(F)(F)F)[C@H]2c1ccc(CO)cc1 : 1.11

Entry COc1ccc([Si](C)(C)[C@H]2[C@H](CC(=O)N3Cc4ccccc4C[C@H]3CO)O[C@@]3(C(=O)N(Cc4cccc(N5CCCCC5=O)c4)c4ccccc43)[C@@H]2C)cc1 , z-score reported as -0.0418

Lab note: measured z-score of Cc1ccc(S[C@]2(C(=O)NC(C)C)CC(=O)N(C3Cc4ccccc4C3)[C@@H]2c2ccc(CO)cc2I)cc1 was 0.507

---

# MEASURED TARGET: Dihydroorotate dehydrogenase (quinone), mitochondrial (Plasmodium falciparum (isolate 3D7)) (UniProt Q08210)
# Sequence (Q08210 whole entry, looked up): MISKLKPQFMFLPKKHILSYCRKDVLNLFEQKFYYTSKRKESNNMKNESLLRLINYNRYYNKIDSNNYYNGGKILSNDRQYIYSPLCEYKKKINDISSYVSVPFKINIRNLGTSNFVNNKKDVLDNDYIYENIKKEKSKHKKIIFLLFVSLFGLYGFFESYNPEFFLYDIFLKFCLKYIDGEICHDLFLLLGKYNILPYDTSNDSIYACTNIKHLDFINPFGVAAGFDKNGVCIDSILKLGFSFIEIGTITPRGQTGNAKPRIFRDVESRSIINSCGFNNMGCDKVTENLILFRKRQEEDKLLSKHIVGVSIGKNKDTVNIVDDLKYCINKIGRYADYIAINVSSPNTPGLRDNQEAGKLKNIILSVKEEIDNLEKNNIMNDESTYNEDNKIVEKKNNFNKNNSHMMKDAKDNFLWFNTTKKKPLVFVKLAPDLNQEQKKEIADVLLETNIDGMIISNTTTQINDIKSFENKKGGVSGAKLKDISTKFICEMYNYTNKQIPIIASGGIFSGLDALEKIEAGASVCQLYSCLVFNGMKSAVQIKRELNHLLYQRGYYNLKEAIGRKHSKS
# PROTOCOL NOTES: PfDHODH enzyme inhibitors, primary screen, biochemical, C-terminal His tag, absorbance 600 nm (AID 1175);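 note: recombinant parasite enzyme with a five histidine tag at its C terminus; test concentration not given here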
# APPLIED CONDITIONS: DCIP absorbance 600 nm, higher = more signal, called active from +8 up or from −8 down
// composite z-score lookup, one value per entry
Keep it simple and answer with nothing but the number.

Before answering, review these 5 worked examples.
CO[C@H]1O[C@H](CO)[C@@H](OC(=O)c2ccc(Br)cc2)[C@@H]2OC(=O)[C@@H](Cc3ccc4ccccc4c3)C/C=C/C[C@H](Cc3ccc4ccccc4c3)C(=O)O[C@@H]12 | -1.92
[N-]=[N+]=Nc1ccccc1[C@H]1OC(c2ccc(OCCCO)cc2)=N[C@@]1(CCS(=O)(=O)c1ccccc1)C(=O)N1CCCCC1 | -0.792
C=C(/C=C/CNS(=O)(=O)c1ccc(C)cc1)[C@H](O)[C@H]1CCCN1S(=O)(=O)c1ccccc1[N+](=O)[O-] | 0.858
O=C1NC(=O)C2C1C=CC(C(O)c1ccc(Br)cc1)N2Nc1ccccn1 (configuration not stated) | -0.347
COC(=O)[C@@]1(Cc2ccc(OC)cc2)[C@H]2c3cc(C(=O)N4CCCC4)n(CCc4cc5ccccc5[nH]4)c3C[C@H]2CN1C(=O)c1ccccc1 | 0.203

Entry O=C(O)[C@H](Cc1ccccc1)n1cc(-c2ccccn2)nn1 — recorded composite z-score = -0.435

# composite z-score of C=CCN1C(=O)[C@@]2(O[C@@H](CCn3cc([C@H](O)c4ccccc4)nn3)[C@H]([Si](C)(C)c3ccc(OC)cc3)[C@H]2C)c2ccccc21 = -0.198

---

Entries and their composite z-score
# PROTOCOL NOTES: small-molecule binders of probe aNOTCH3, primary screen, biochemical, small-molecule microarray, 635/667 nm fluorescence (AID 1120);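 note: probe is a biotin-tagged antibody raised against NOTCH3 rather than NOTCH3 protein; score merges spot fluorescence near 667 nm with spot signal to noise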
# APPLIED CONDITIONS: higher = more signal
Reply briefly: the number, and no unit.

Measured composite z-score of CO[C@H]1O[C@H](CO)[C@@H](OC(=O)Nc2ccccc2-c2ccccc2)[C@H](OC(=O)Nc2ccc3c(c2)OCO3)[C@@H]1OC(=O)Nc1ccc2c(c1)OCO2 : 0.389

Consider CC(=O)n1cc(C(O)C2C=CC3C(=O)N(Cc4ccccc4)C(=O)C3N2n2cnnc2)c2ccccc21 (configuration not stated) . Its measured composite z-score is 0.0576

Looking up COCCCNC(=O)[C@]1(Cc2ccccc2N=[N+]=[N-])N=C(c2ccc(OCCCO)cc2)O[C@@H]1c1ccccc1N=[N+]=[N-] , I found its composite z-score recorded as 0.0348

composite z-score reported for this compound C[C@]12C(=O)N(CCCCCCO)[C@@H]3C(=O)N(c4ccc(Cl)cc4)CC=CC31O[C@@H]1/C=C\CCCOC(=O)C12 (some centres not stated) : -0.16

Measured composite z-score, COC(=O)[C@@]1(Cc2ccc(F)cc2)[C@H]2c3cc(C(=O)N4CCCC4)n(CCc4c[nH]c5ccc(OC)cc45)c3C[C@H]2CN1C(=O)c1ccccc1 : 1.43

According to the records, this compound CC(C)(C)OC(=O)CC[C@]1(C(=O)O)N=C(c2ccc(OCCCO)cc2)O[C@H]1c1ccccc1 displays composite z-score of 0.318

get_value(item= O=C1NC(=O)C2C1C=CC(C(O)c1c(F)cccc1Cl)N2Nc1ccccn1 (configuration not stated) , readout=composite z-score) returns -0.0009

---

This section presents molecules with their documented composite z-score values.
# MEASURED TARGET: Fibroblast growth factor 2 (Homo sapiens) (UniProt P09038)
# Sequence (P09038 whole entry, looked up): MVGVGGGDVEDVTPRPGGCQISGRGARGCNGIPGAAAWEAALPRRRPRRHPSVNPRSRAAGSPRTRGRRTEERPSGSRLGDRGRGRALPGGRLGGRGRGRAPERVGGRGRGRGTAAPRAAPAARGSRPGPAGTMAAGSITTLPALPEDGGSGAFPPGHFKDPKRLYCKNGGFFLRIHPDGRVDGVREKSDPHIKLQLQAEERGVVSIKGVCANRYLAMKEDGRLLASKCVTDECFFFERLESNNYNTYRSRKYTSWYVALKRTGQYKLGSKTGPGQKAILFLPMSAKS
# PROTOCOL NOTES: FGF2 binders on small-molecule microarrays, primary screen, biochemical, small-molecule microarray, 635/667 nm fluorescence (AID 1133)
# APPLIED CONDITIONS: small-molecule microarray binding, FGF2, fluorescence 635/667; higher = more signal
Answer with a number only.

Examples with answers:
CC=CC(O)C1C=CC2C(=O)N(c3ccccc3)C(=O)C2N1Nc1ccc([N+](=O)[O-])cc1 (stereo not drawn) | 0.194
CC[C@H]1C2=C3C(CC[C@H]4C(OCc5ccc(F)cc5C(F)(F)F)OC[C@](C)([C@@H]34)N(C(=O)OC(C)(C)C)C2)C2COC(=O)OCC21 (stereo partly drawn) | -1.39
CCCC[C@@H]1C[C@H]1[C@@H](NC(=O)c1cccnc1)c1ccc(-c2ccccc2)cc1 | -2.03
C=C(C(=O)CC[C@H](OC(=O)c1cccnc1)c1ccc(CO)o1)C(C)C | 0.962

# context switch: different molecule, same composite z-score
The molecule listed as C=CCNC(=O)[C@H]1[C@@H]2C(=O)O[C@@H](c3ccccc3)[C@@H](c3ccccc3)N2[C@@H](c2ccccc2OCCO)[C@]12C(=O)N(C(=O)OCCOC)c1ccc(C#CC3=CCCCC3)cc12 shows composite z-score equal to 0.685

---

# PROTOCOL NOTES: small-molecule microarray binders of probe aEGFR, primary screen, biochemical, biotinylated probe, 635/667 nm fluorescence (AID 1097);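 note: probe is a biotinylated anti-EGFR antibody binding compounds printed on slides; score combines fluorescence near 667 nm and signal to noise of each spot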
# APPLIED CONDITIONS: higher = more signal
Collected composite z-score values appear next to each entry.
Lab note: jot down the number only; don't add units.

COc1cc(CO)cc(I)c1O[C@H]1C=C(C(=O)NCCO)C[C@@H](NCc2ccccc2F)[C@@H]1O | -0.151
NCCCCCNC(=O)[C@@H]1C[C@@H]2C(=O)N[C@@H](CCCCN)C(=O)N2[C@@H]1c1cccc(OCCO)c1 | -0.0306
CCCNC(=O)[C@@]1(c2ccc([N+](=O)[O-])cc2)CC(=O)N(C2CCCCC2)[C@@H]1c1ccc(CO)cc1I | 0.0592
Cc1ccc(S[C@]2(C(=O)NC3CC3)CC(=O)N(Cc3ccccc3Cl)[C@@H]2c2ccc(CO)cc2I)cc1 | -0.0238
CC(C)(C)OC(=O)CC[C@]1(C(=O)O)N=C(c2ccc(OCCCO)cc2)O[C@H]1c1ccccc1CN=[N+]=[N-] | -0.103
[N-]=[N+]=Nc1ccccc1[C@@H]1OC(c2ccc(OCCCO)cc2)=N[C@]1(CCS(=O)(=O)c1ccccc1)C(=O)NCCN1CCOCC1 | 0.354
CC(C)(C)OC(=O)CC[C@@]1(C(=O)O)N=C(c2ccc(OCCCO)cc2)O[C@@H]1c1ccccc1CN=[N+]=[N-] | 0.272
CC(C)C(=C=CC[C@@H](O)c1ccccc1OCCO)C[C@@H](O)COCc1ccccc1 | 0.001
CC(C)(C)OC(=O)CC[C@]1(C(=O)NCCN2CCOCC2)N=C(c2ccc(OCCCO)cc2)O[C@H]1c1ccccc1 | 0.34
CCOC(=O)C[C@H]1[C@H](OC(=O)c2ccc(-c3ccccc3)cc2)[C@@H](NC(=O)C2CCCCC2)c2cc(OCCCO)ccc2N1C(=O)c1ccccc1 | -0.113

Form field composite z-score, entry COC(=O)C[C@H]1O[C@]2(C(=O)N(C)c3ccccc32)[C@@H](C)[C@@H]1[Si](C)(C)c1ccc(C)cc1 : -0.0674

The compound listed as O=c1cccc(-c2cccc(Cl)c2)o1 shows composite z-score equal to -0.0304

# composite z-score (compound: CN(C)CCCNC(=O)[C@@]1(C)c2ccccc2C(=O)N(Cc2cc(C(F)(F)F)cc(C(F)(F)F)c2)[C@H]1c1ccc(CO)cc1 ) is -0.186

Sure, the documented composite z-score for COc1ccc([Si](C)(C)[C@H]2[C@H](CCn3cc(CCO)nn3)O[C@@]3(C(=O)N(Cc4ccc(N5C(=O)c6cccc7cccc5c67)cc4)c4ccccc43)[C@@H]2C)cc1 is -0.0371

Entry CC(C)CN1C(=O)[C@@]2(Cc3ccccc31)c1ccccc1C(=O)N(Cc1ccccc1C(F)(F)F)[C@H]2c1ccc(CO)cc1 — recorded composite z-score = -0.187

Item: O=C(NC1CC1)[C@@H]1c2ccccc2C(=O)N(Cc2ccccc2)[C@H]1c1ccc(CO)cc1 | composite z-score: -0.366
